# assay-explanation: physchem
# condition: pH 7.4, aqueous buffer, kinetic from dmso stock
# solubility values compiled below

Worked cases, solubility given:
The compound listed as COc1cc2c(cc1OC)[C@@H](Cc1ccc(Oc3cc(C[C@@H]4c5cc(OC)c(OC)cc5CCN4C)ccc3OC)c(OC)c1)N(C)CC2 [Compound 2] shows solubility equal to > 100 µM

The compound listed as COc1ccc2cc1Oc1ccc(cc1)C[C@H]1c3cc(c(OC)cc3CCN1C)Oc1c(OC)c(OC)cc3c1[C@H](C2)N(C)CC3 [TETN, tetrandrine, reference compound] shows solubility equal to > 100 µM

Next:
The compound listed as COc1cc2c(cc1OC)[C@@H](Cc1ccc(Oc3ccc(C[C@@H]4c5cc(OC)c(OC)cc5CCN4C)cc3OC)nc1)N(C)CC2 [Compound 4] shows solubility equal to > 100 µM
